tested on: HCT-116; assay: NCI tumour cell line growth inhibition, 48 h
Activity calls are given as the source filed them. No stated cut-off is given here; in the data, active = GI50 up to about 1.1 µM and inactive = higher.
Respond only with the outcome that fits, drawn from TRUE = active, FALSE = inactive

Please review the following examples before continuing.
{"columns": ["compound", "category.label"],
 "data": [
  ["Cc1ccc(Nc2cc(=O)[nH]c(=S)[nH]2)cc1", "FALSE"],
  ["C=C1C(=O)OC2CC(C)C3C4OC4C(O)C3(C)C(O)C12 (configuration not stated)", "FALSE"],
  ["ON=C(CC(O)(C(F)(F)Cl)C(F)(F)Cl)CC(O)(C(F)(F)Cl)C(F)(F)Cl", "FALSE"],
  ["CN(C)CCCNc1ccc2ncn3c4ccccc4c(=O)c1c23", "FALSE"],
  ["CC1c2[nH]c3ccccc3c2CCN1O (configuration not stated)", "FALSE"],
  ["COC(=O)[C@H](C)[C@H]1CC[C@@](C)([C@H]2CC3C(C)(C)[C@H]4CCC(C)=C[C@H]4C[C@@]3(C)O2)OO1 (some centres not stated)", "FALSE"]
]}

Ask: # outcome recorded in this test, key = `CCN(CC)C(=O)CNC(=O)OC(C)(C)C`
Result: FALSE

Ask: // param item: COc1ccc(COCC[C@H](C)OC2OC(CO[Si](C)(C)C(C)(C)C)C(O)C(O)C2O)cc1 (some centres not stated) ; yields the recorded call
Result: FALSE

Ask: Outcome? Cc1c2n(c(=O)[nH]c1=O)C1OC(CO)C(O2)C1N=[N+]=[N-] (configuration not stated)
Result: FALSE

Ask: Just curious, what result did `CC[C@H](CC[C@@H](C)[C@H]1CC[C@H]2[C@@H]3CC=C4C[C@@H](O)CC[C@]4(C)[C@H]3CC[C@]12C)C(C)C` get here?
Result: FALSE

Ask: Call for entry `COc1ccc(C(=O)O)c2c(=O)c3ccccc3[nH]c12` :
Result: FALSE

Ask: Please indicate how the test categorized CCOC(=O)C12CCC(c3c(C)cccc3C)(O1)C(C(=O)OC)=C2C(=O)OC (configuration not stated) .
Result: FALSE

Ask: Given `COc1nc(OC)nc(-c2cccc(F)c2)n1` , state the outcome it received in this test.
Result: FALSE

Ask: What classification did O=C(c1ccccc1)N1CCN2CCN=C(c3ccccc3)C21c1ccccc1 (configuration not stated) end up with in this test?
Result: FALSE

// data source = ChEMBL document CHEMBL1201862
